- System: Mycobacterium kansasii
- method: Antimycobacterial activity against Mycobacterium kansasii CNCTC My 235/80 after 14 days by micromethod
- Type: functional
- assay_context: CNCTC My 235/80, 336 h
Some compounds, each annotated with its measured log10 MIC.
Please note: log10 values; quantity MIC; unit µM.

Use these answered entries as a reference point.
>>> assay_value("COc1ccc(-n2nnnc2OCc2cc([N+](=O)[O-])cc([N+](=O)[O-])c2)cc1")
0.90
>>> assay_value("O=[N+]([O-])c1cc(C[S+]([O-])c2nnnn2-c2ccccc2)cc([N+](=O)[O-])c1 (centres undefined)")
2.40
>>> assay_value("O=[N+]([O-])c1cc(COc2nnnn2-c2ccc(Cl)c(Cl)c2)cc([N+](=O)[O-])c1")
1.20
>>> assay_value("COc1ccc(-n2nnnc2SCc2ccc([N+](=O)[O-])cc2[N+](=O)[O-])cc1")
1.79
>>> assay_value("O=[N+]([O-])c1cc(CSc2nnnn2Cc2ccccc2)cc([N+](=O)[O-])c1")
0.90

Reported log10 MIC, compound COc1ccc(-n2nnnc2[S+]([O-])Cc2cc([N+](=O)[O-])cc([N+](=O)[O-])c2)cc1 (centres undefined) : ____
2.10

So what's the measured log10 MIC for this one? `CC(=O)SCc1cc([N+](=O)[O-])cc([N+](=O)[O-])c1`
1.51

Recorded log10 MIC for `COc1ccc(-n2nnnc2SCc2cc(N)cc(N)c2)cc1` , please?
3.00

Given the compound `O=[N+]([O-])c1cc(CSc2nnnn2-c2ccccc2)cc([N+](=O)[O-])c1` , what is its reported log10 MIC?
0.60
